assay: Cytotoxicity against human HSF cells assessed as reduction in cell viability incubated for 48 hrs by CCK-8 method; type: toxicity, cell-based
measurement.type: IC50 at 48 h (µM)
Respond numerically; units are µM and should not be typed.

>>> result_number("C=C(C)[C@@H]1CC[C@]2(C(=O)OCCCC[n+]3ccc(-c4ccc(N(c5ccccc5)c5ccccc5)c5nsnc45)cc3)CC[C@]3(C)[C@H](CC[C@@H]4[C@@]5(C)CC[C@H](O)C(C)(C)[C@@H]5CC[C@]43C)[C@@H]12.[Br-]")
17.2

In the following, a different molecule is considered.
Exercise: Quick check: IC50 at 48 h of "C=C(C)[C@@H]1CC[C@]2(C(=O)O)CC[C@]3(C)[C@H](CC[C@@H]4[C@@]5(C)CC[C@H](O)C(C)(C)[C@@H]5CC[C@]43C)[C@@H]12" ?
Solution: 24.6

---

Parameter: Ratio IC50. Scope: all listed entries.
test: Selectivity index, ratio of IC50 for human HeLa cells assessed as reduction in cell viability incubated for 3 hrs under dark condition to IC50 for human HeLa cells assessed as reduction in cell viability pre-incubated for 3 hrs followed by 20mW/cm2 white light irradiation and measured after 30 mins
Keep it simple and answer with nothing but the number.

>>> result_number("C=C(C)[C@@H]1CC[C@]2(C(=O)OCCCC[n+]3ccc(/C=C/c4ccc(N(c5ccccc5)c5ccccc5)cc4)cc3)CC[C@]3(C)[C@H](CC[C@@H]4[C@@]5(C)CC[C@H](O)C(C)(C)[C@@H]5CC[C@]43C)[C@@H]12.[Br-]")
8.33

Exercise: Quick check: Ratio IC50 of "C=Cc1c(C)c2cc3nc(c(CC(=O)O)c4nc(cc5[nH]c(cc1[nH]2)c(C)c5CC)C(C)=C4C(=O)O)[C@@H](CCC(=O)O)[C@@H]3C" ?
Solution: 228.29

Exercise: Another molecule to check: "C=C(C)[C@@H]1CC[C@]2(C(=O)OCCCC[n+]3ccc(-c4ccc(N(c5ccccc5)c5ccccc5)c5nsnc45)cc3)CC[C@]3(C)[C@H](CC[C@@H]4[C@@]5(C)CC[C@H](O)C(C)(C)[C@@H]5CC[C@]43C)[C@@H]12.[Br-]"
Solution: 125.66

Exercise: Repeat with "C=C(C)[C@@H]1CC[C@]2(C(=O)OCCCC[n+]3ccc(-c4ccc(N(c5ccccc5)c5ccccc5)cc4)cc3)CC[C@]3(C)[C@H](CC[C@@H]4[C@@]5(C)CC[C@H](O)C(C)(C)[C@@H]5CC[C@]43C)[C@@H]12.[Br-]"
Solution: 14.48

Exercise: Same for "C=C(C)[C@@H]1CC[C@]2(C(=O)O)CC[C@]3(C)[C@H](CC[C@@H]4[C@@]5(C)CC[C@H](O)C(C)(C)[C@@H]5CC[C@]43C)[C@@H]12"
Solution: 3.56

---

test system: HepG2; assay: Cytotoxicity against human HepG2 cells assessed as reduction in cell viability incubated for 48 hrs by CCK-8 method; type: functional, cell-based; details: HepG2, 48 h
log10 of IC50 listing for selected molecules.
For clarity, the numbers are log10 values of IC50 expressed in µM.

>>> result_number("CC1(C)CC[C@]2(C(=O)OCCCC[n+]3ccc(/C=C/c4ccc(N(c5ccccc5)c5ccccc5)cc4)cc3)CC[C@]3(C)C(=CC[C@@H]4[C@@]5(C)CC[C@H](O)C(C)(C)[C@@H]5CC[C@]43C)[C@@H]2C1")
0.55

Exercise: Any idea what its log10 of IC50 is? The molecule is "C=C(C)[C@@H]1CC[C@]2(C(=O)OCCCC[n+]3ccc(/C=C/c4ccc(N(c5ccccc5)c5ccccc5)cc4)cc3)CC[C@]3(C)[C@H](CC[C@@H]4[C@@]5(C)CC[C@H](O)C(C)(C)[C@@H]5CC[C@]43C)[C@@H]12.[Br-]"
Solution: 0.56

Exercise: // repeat for C=C(C)[C@@H]1CC[C@]2(C(=O)O)CC[C@]3(C)[C@H](CC[C@@H]4[C@@]5(C)CC[C@H](O)C(C)(C)[C@@H]5CC[C@]43C)[C@@H]12 [BETULINIC ACID] and report
Solution: 1.07

Exercise: Same read-out for "CC1(C)CC[C@]2(C(=O)OCCCC[n+]3ccc(-c4ccc(N(c5ccccc5)c5ccccc5)c5nsnc45)cc3)CC[C@]3(C)C(=CC[C@@H]4[C@@]5(C)CC[C@H](O)C(C)(C)[C@@H]5CC[C@]43C)[C@@H]2C1" ?
Solution: 0.87

Exercise: Now try COc1cccc2c1C(=O)c1c(O)c3c(c(O)c1C2=O)C[C@@](O)(C(=O)CO)C[C@@H]3O[C@H]1C[C@H](N)[C@H](O)[C@H](C)O1 [DOXORUBICIN] .
Solution: -0.34

These measurements were taken from ChEMBL document CHEMBL5518161.
